# Test system: SK-MEL-5 melanoma
# experiment: NCI-60 one-dose screen, 48 h (100 = growth as untreated, 0 = no growth, -100 = all killed)
# setup.conditions: 10 µM unless noted
Compounds without any hit were thinned out: in the full panel of roughly 83,000, 20% have a hit.
Each record's growth is compared with band 1: < -80%; band 2: ≥ -80% and < 30%; band 3: ≥ 30% to give its class.

Check out these entries, answers already filled in.
compound	class
Cc1sc2c(c1C)c(=O)nc1c(-c3nc(-c4ccccc4)cs3)n[nH]n12	band 3
C=C1C(=O)O[C@H]2[C@H]1CC/C(CNC(=O)c1cc3cc(OC)ccc3[nH]1)=C\CC[C@@]1(C)O[C@@H]21	band 2
Clc1ccc2c(NCCNc3nc(N4CCCC4)nc4ccccc34)ccnc2c1	band 1
COc1cc2c(c(OC)c1)C1c3ccccc3NC(=O)N1CC2 (stereo not drawn)	band 2
O=C(CNc1nc2ccccc2s1)Nc1ccc(-c2nc3ccccc3s2)cc1	band 3
CCCCCC(=O)OCc1ccc(Cl)c(Cl)c1	band 3

Lab note: sort O=c1nc2c(-c3nc4ccccc4s3)n[nH]n2c2sc3c(c12)CCCC3 into the matching growth band. band 3

Lab note: sort COc1ncc(-c2ccc3nccc(-c4ccnnc4)c3c2)cc1NS(=O)(=O)c1ccc(F)cc1F into the matching growth band. band 1

Lab note: sort C1=C\COCc2cc(ccc2OCCN2CCCC2)Nc2nccc(n2)-c2cccc(c2)COC/1 into the matching growth band. band 1

====

# Tested on: K-562 leukemia
# experiment: NCI-60 one-dose screen, 48 h
# setup.conditions: 10 µM unless noted
About 83,000 compounds went through this panel and 20% of them were active in at least one assay; those are over-represented in the sample as a whole. Activity calls are given as the source filed them. Rule for the calls: active = growth percent below 10; inactive = the rest.
The reply should name one outcome from active, inactive

Check out these entries, answers already filled in.
compound	class
CNC(=O)c1cnc(C)nc1-c1cc(C(C)(C)C)c(O)c(C(C)(C)C)c1	inactive
COc1cc2ncnc3c2cc1OCCCCCN(C)Cc1ccc(Br)cc1N3	inactive
COc1ccc2c(CCCCC(c3ccccc3)c3ccccc3)c3[n+](cc2c1OC)CCc1cc2c(cc1-3)OCO2	active
O=C(CNc1nc(-c2ccc(Cl)cc2)cs1)Nc1ccc(-c2nc3ccccc3s2)cc1	inactive
N#Cc1c(NC(=O)c2ccco2)[n+]([O-])c2cc(F)c(F)cc2[n+]1[O-]	inactive

Hi team, can someone confirm the assay call for Cc1sc2c(c1C)c(=O)nc1c(-c3nc4ccccc4s3)n[nH]n12 ? inactive

====

The entries below are paired with their reported growth.
# System: SNB-75 CNS
# experiment: NCI-60 one-dose screen, 48 h (100 = growth as untreated, 0 = no growth, -100 = all killed)
# setup.conditions: 10 µM unless noted
This is part of a sample that, as a whole, favours compounds with a hit. Of some 83,000 tested, about 20% had one in any assay. Calls of active or inactive are those of the source. Rule for the calls: active = growth percent below 10; inactive = the rest.

Consider the following illustrative entries.
compound	growth
Cn1ccnc1C(=O)/C=C/c1ccc(CC(=O)Nc2ccc(Br)cc2)cc1	8.2% (active)
Cc1nn(-c2nc3ccccc3[nH]2)c2c1C(c1ccc(OCc3ccc(F)cc3)cc1)CC(=O)N2 (stereo not given)	48.3% (inactive)
CC(=O)OC1Oc2ccccc2-c2oc(=O)c(-c3cc4ccc(N(C)C)cc4oc3=O)cc21 (stereo not given)	71.1% (inactive)
C=CC(=O)Nc1cccc(Nc2nc(Nc3ccc(N4CCN(C(C)=O)CC4)cc3OC)ncc2C(F)(F)F)c1	16.1% (inactive)
Cc1cc2c(-c3nc4ccccn4c3NC34CC5CC(CC(C5)C3)C4)c(O)c(O)cc2c(O)c1-c1c(C)cc2c(-c3nc4ccccn4c3NC34CC5CC(CC(C5)C3)C4)c(O)c(O)cc2c1O	19.6% (inactive)
CN1CC[C@@H](c2c(O)cc(O)c3c(=O)cc(-c4ccccc4Cl)oc23)[C@@H]1CO	-63.9% (active)
CC(=O)C1=C(C)NC(SCc2nnc(-c3ccc(C)cc3)o2)=NC1c1ccc(F)cc1 (stereo not given)	98.5% (inactive)
CCN1CCN(c2cc(C)nc(N(CCCNc3ccnc4cc(Cl)ccc34)Cc3ccc4c(c3)OCO4)n2)CC1	-15% (active)

Look up and report measured growth (SNB-75 CNS) for the following compound: COc1ccc(F)c(F)c1C(=O)c1cnc(NC2CCN(S(C)(=O)=O)CC2)nc1N -66.1% (active)

Look up and report measured growth (SNB-75 CNS) for the following compound: Cc1nn(-c2nc3ccccc3[nH]2)c2c1C(c1ccc(O)cc1)CC(=O)N2 (stereo not given) 27.8% (inactive)

Look up and report measured growth (SNB-75 CNS) for the following compound: CCN1CCN(CCCN(C[C@H]2Cc3ccccc3CN2)[C@H]2CCCc3cccnc32)CC1 84.8% (inactive)

Look up and report measured growth (SNB-75 CNS) for the following compound: COC(=O)[C@H](C)NC(=O)[C@@H](OC)[C@@H]1Cc2cc3cc(OC4CC(OC5CC(O)C(O)C(C)O5)C(O)C(C)O4)c(C)c(O)c3c(O)c2C(=O)[C@H]1OC1CC(OC2CC(OC3CC(C)(O)C(O)C(C)O3)C(O)C(C)O2)C(O)C(C)O1 (stereo not given in full) -63.8% (active)

Look up and report measured growth (SNB-75 CNS) for the following compound: CO[C@H]1C[C@@H]2CC[C@@H](C)[C@@](O)(O2)C(=O)C(=O)N2CCCC[C@H]2C(=O)O[C@H]([C@H](C)C[C@@H]2CC[C@@H](OCCO)[C@H](OC)C2)CC(=O)[C@H](C)/C=C(\C)[C@@H](O)[C@H](OC)C(=O)[C@H](C)C[C@H](C)\C=C/C=C/C=C/1C 20.8% (inactive)

Look up and report measured growth (SNB-75 CNS) for the following compound: C[C@H]1Oc2cc(cnc2N)-c2c(nn(C)c2C#N)CN(C)C(=O)c2ccc(F)cc21 83.8% (inactive)

Look up and report measured growth (SNB-75 CNS) for the following compound: c1cc[n+](Cc2c3ccccc3cc3c2ccc2ccccc23)cc1 29.6% (inactive)

====

# Tested on: U251 CNS
# experiment: NCI-60 one-dose screen, 48 h
# setup.conditions: 10 µM unless noted
Compounds without any hit were thinned out: in the full panel of roughly 83,000, 20% have a hit. Activity calls are given as the source filed them. Rule for the calls: active = growth percent below 10; inactive = the rest.
The reply should name one outcome from active, inactive

Check out these entries, answers already filled in.
compound	class
COc1cc(-c2nc(C(=O)NCC(=O)O)nn2-c2ccc(Cl)cc2)cc(OC)c1OC	inactive
Cc1ccc(-c2nc3ccc(Cl)cn3c2NC2CCCCC2)o1	inactive
Cc1cc(-c2cc(O)ccc2Cl)cc2nnc(Nc3ccc(OCCN4CCCC4)cc3)nc12	active
Cc1cccc(Cl)c1NC(=O)c1cnc(Nc2cc(N3CCOCC3)cc(N3CCOCC3)c2)s1	inactive

Now look at this one.
Hi team, can someone confirm the assay call for CC(C)NC[C@@H](C(=O)N1CCN(c2ncnc3c2[C@H](C)C[C@H]3O)CC1)c1ccc(Cl)cc1 ? inactive

====

# Test system: UACC-257 melanoma
# experiment: NCI-60 one-dose screen, 48 h
# setup.conditions: 10 µM unless noted
This is part of a sample that, as a whole, favours compounds with a hit. Of some 83,000 tested, about 20% had one in any assay. Calls of active or inactive are those of the source. The calls were made as follows: active = growth percent below 10; inactive = the rest.
The reply should name one outcome from active, inactive

compound	target	class
CCOc1cccc(/C=N/NC(=O)c2ccccc2Nc2ccnc(C(F)(F)F)c2)c1O	UACC-257 melanoma	inactive

Hi team, can someone confirm the assay call for O=C(NOCCO)c1ccc2cncn2c1Nc1ccc(I)cc1F ? active

Hi team, can someone confirm the assay call for COc1ccc(C(=O)c2cc(OC)c(OC)c(OC)c2)cc1/C=C/C(=O)c1ccc(F)cc1 ? inactive

Hi team, can someone confirm the assay call for COc1ncc(-c2ccc3nccc(-c4ccnnc4)c3c2)cc1NS(=O)(=O)c1ccc(F)cc1F ? active

Hi team, can someone confirm the assay call for O=C(Nc1cccc([N+](=O)[O-])c1)c1ccc(Cl)c(Cl)c1 ? inactive

Hi team, can someone confirm the assay call for O=[N+]([O-])c1cc(Br)cc2c1[nH]c1ccc(Br)cc12 ? inactive

Hi team, can someone confirm the assay call for COc1ccc(F)c(F)c1C(=O)c1cnc(NC2CCN(S(C)(=O)=O)CC2)nc1N ? active

Hi team, can someone confirm the assay call for O=S1(=O)OC(c2ccc(O)c(Cl)c2)(c2ccc(O)c(Cl)c2)c2ccccc21 ? inactive

Hi team, can someone confirm the assay call for C#Cc1cccc(Nc2ncnc3cc(OC)c(OCCCCCCC(=O)NO)cc23)c1 ? active

Hi team, can someone confirm the assay call for Cc1c(Cn2c(C)nc3c(C(=O)O)cc(N4CCOCC4)cc32)cccc1C(F)(F)F ? inactive

Hi team, can someone confirm the assay call for C[C@@H](Oc1cc(C(=O)Nc2ccc(C(=O)N3CCN(C)CC3)cc2)nnc1N)c1c(Cl)ccc(F)c1Cl ? inactive

Hi team, can someone confirm the assay call for COCCN1CCN(Cc2ccc(-c3n[nH]c4c3C(=O)c3c(NC(=O)NN5CCOCC5)cccc3-4)cc2)CC1 ? active

Hi team, can someone confirm the assay call for CCNC(=O)Nc1nc2ccc(Oc3ccnc(C(=O)NC)c3)cc2s1 ? inactive

Hi team, can someone confirm the assay call for CNC(=O)c1cc(Oc2ccc3nc(NC(=O)Nc4ccc(Cl)c(C(F)(F)F)c4)sc3c2)ccn1 ? inactive

Hi team, can someone confirm the assay call for C=CC(=O)N1CCC[C@@H](n2nc(-c3ccc(Oc4ccccc4)cc3)c3c(N)ncnc32)C1 ? inactive

Hi team, can someone confirm the assay call for CC(=O)CC1CCCC1c1ccc2ccccc2c1 (configuration not stated) ? inactive

Hi team, can someone confirm the assay call for O=C(NC[C@H](O)CO)c1ccncc1Nc1ccc(I)cc1F ? active

Hi team, can someone confirm the assay call for Cc1cc(-c2cc(O)ccc2Cl)cc2nnc(Nc3ccc(OCCN4CCCC4)cc3)nc12 ? active

Hi team, can someone confirm the assay call for COC(=O)[C@H](C)NC(=O)[C@@H](OC)[C@@H]1Cc2cc3cc(OC4CC(OC5CC(O)C(O)C(C)O5)C(O)C(C)O4)c(C)c(O)c3c(O)c2C(=O)[C@H]1OC1CC(OC2CC(OC3CC(C)(O)C(O)C(C)O3)C(O)C(C)O2)C(O)C(C)O1 (some centres not stated) ? active

Source of measurements: PubChem BioAssay (NCI)
